Test system: Human immunodeficiency virus 1
measurement_description: Antiviral activity against HIV1 NL4-3 infected in human TZM-bl cells assessed as reduction in virus induced cytopathic effect measured after 2 days by luciferase gene expression assay
Assay type: functional, organism-based
particulars: Human immunodeficiency virus 1, NL4-3, TZM-bl, 48 h
pEC50: −log10 of the molar value.
recorded_metric: pEC50

**Q:** Give pEC50 (Human immunodeficiency virus 1) of the following compound: COc1ccc(N(C)C(=O)[C@H](Cc2ccccc2)NC(=O)Cn2cc(-c3ccc(NC(C)=O)cc3)nn2)cc1
**A:** < 4.72

**Q:** Same question, COc1ccc(N(C)C(=O)[C@H](Cc2ccccc2)NC(=O)Cn2cc(-c3ccccc3NC(=O)c3ccc(C#N)cc3)nn2)cc1 this time
**A:** < 4.79

**Q:** Same question, COc1ccc(N(C)C(=O)[C@H](Cc2ccccc2)NC(=O)Cn2cc(-c3cccc(NC(=O)c4ccc(F)cc4)c3)nn2)cc1 this time
**A:** < 4.78

**Q:** Same question, COc1ccc(N(C)C(=O)[C@H](Cc2ccccc2)NC(=O)Cn2cc(-c3ccccc3NC(=O)c3ccc(-c4ccccc4)cc3)nn2)cc1 this time
**A:** < 4.82

**Q:** Same question, COc1ccc(C(=O)Nc2ccccc2-c2cn(CC(=O)N[C@@H](Cc3ccccc3)C(=O)N(C)c3ccc(OC)cc3)nn2)cc1 this time
**A:** < 4.79

**Q:** Same question, COC(=O)c1ccc(C(=O)Nc2cccc(-c3cn(CC(=O)N[C@@H](Cc4ccccc4)C(=O)N(C)c4ccc(OC)cc4)nn3)c2)cc1 this time
**A:** < 4.81

**Q:** Same question, COc1ccc(N(C)C(=O)[C@H](Cc2ccccc2)NC(=O)Cn2cc(-c3cccc(NC(=O)c4ccc(-c5ccccc5)cc4)c3)nn2)cc1 this time
**A:** < 4.82

**Q:** Same question, COc1ccc(N(C)C(=O)[C@H](Cc2ccccc2)NC(=O)Cn2cc(-c3ccccc3NC(=O)c3ccc(C)cc3)nn2)cc1 this time
**A:** < 4.78
